- System: Rice (Kinmaze)
- Method Notes: Rice seedlings at second leaf stage grown in liquid culture medium with various herbicidal compounds and p-(t-butyl)benzoic acid
- Assay type: in vivo
- Protocol Conditions: herbicidal compound at ppm of Table 3, with or without p-(t-butyl)benzoic acid 3 ppm; after 14 days
# Living mass Above-ground part per record follows
Measured Metric: Living mass Above-ground part

> print(dat)
                                   compound  observed.measurement
1                CCN(CC)C(=O)SCc1ccc(Cl)cc1                0.23 g
2           CCCCOCN(C(=O)CCl)c1c(CC)cccc1CC                0.14 g
3  CCN(C(=O)n1nnn(-c2ccccc2Cl)c1=O)C1CCCCC1 [compound 7, Fentrazamide]                0.08 g
4  COC(=O)c1ccccc1CS(=O)(=O)NC(=O)Nc1nc(OC)cc(OC)n1                0.11 g
5  CCOC(=O)c1cnn(C)c1S(=O)(=O)NC(=O)Nc1nc(OC)cc(OC)n1                0.07 g
